Data provenance: paper PMC5700162

Substrate: O=P(O)(O)OC[C@H](O)CO
Experiment: coupled MDCC-PBP Pi-biosensor fluorescence assay in lipid cubic phase (monoolein)
Type: biochemical, Aquifex aeolicus
Conditions: co-substrate 3.3-5.2 mol% 16:0-P, pH 8.0, 30 °C, no technical replicates
Catalogue of proteins with associated Km

[
  {
    "Protein": "aaPlsY (Aquifex aeolicus VF5; S35A) (protein, full length, 192 residues, monomer, codon-optimised gene, E. coli BL21(DE3); assays: C-terminal His8 tag (p3EC); crystals: C-terminal His-eGFP removed by 3C protease; DDM-purified, reconstituted in lipid cubic phase) MKALFLVIFAYLLGSITFGEVIAKLKGVDLRNVGAGNVGATNVTRALGKKYGVLVFFLDFLKGFIPALIAVKSFGIDSWVLTFTGLASVLGHMYPVFFGFKGGKGVATALGVVFAVSPSVALFSFLVWLGIFLWKRYVSLASITATISAFLFLFVAGYPVNVLFMAIVIGALIIYRHRENINRLLTGREHRF",
    "Km [mM]": 13.75
  },
  {
    "Protein": "aaPlsY (Aquifex aeolicus VF5; N180A) (protein, full length, 192 residues, monomer, codon-optimised gene, E. coli BL21(DE3); assays: C-terminal His8 tag (p3EC); crystals: C-terminal His-eGFP removed by 3C protease; DDM-purified, reconstituted in lipid cubic phase) MKALFLVIFAYLLGSITFGEVIAKLKGVDLRNVGSGNVGATNVTRALGKKYGVLVFFLDFLKGFIPALIAVKSFGIDSWVLTFTGLASVLGHMYPVFFGFKGGKGVATALGVVFAVSPSVALFSFLVWLGIFLWKRYVSLASITATISAFLFLFVAGYPVNVLFMAIVIGALIIYRHREAINRLLTGREHRF",
    "Km [mM]": 26.31
  },
  {
    "Protein": "aaPlsY (Aquifex aeolicus VF5; K104A) (protein, full length, 192 residues, monomer, codon-optimised gene, E. coli BL21(DE3); assays: C-terminal His8 tag (p3EC); crystals: C-terminal His-eGFP removed by 3C protease; DDM-purified, reconstituted in lipid cubic phase) MKALFLVIFAYLLGSITFGEVIAKLKGVDLRNVGSGNVGATNVTRALGKKYGVLVFFLDFLKGFIPALIAVKSFGIDSWVLTFTGLASVLGHMYPVFFGFKGGAGVATALGVVFAVSPSVALFSFLVWLGIFLWKRYVSLASITATISAFLFLFVAGYPVNVLFMAIVIGALIIYRHRENINRLLTGREHRF",
    "Km [mM]": 6.58
  }
]
